# System: A498 renal
# Method summary: NCI tumour cell line growth inhibition, 48 h
Measure name: GI50

Compound | Measure name | Recorded value
O=C(O)CSc1cc(NS(=O)(=O)c2ccc(Br)cc2)c2ccccc2c1O | GI50 | 18.3 µM
O=C1C[C@@H]2OCC=C3C[N+]4([O-])CC[C@]56c7ccccc7N1[C@H]5[C@H]2[C@H]3C[C@@H]64 (stereo not given in full) | GI50 | > 100 µM
O=C(/C=C(\[O-])c1ccccc1)CCCCCCC(=O)/C=C(\[O-])c1ccccc1.O=C(/C=C(\[O-])c1ccccc1)CCCCCCC(=O)/C=C(\[O-])c1ccccc1.O=C(/C=C(\[O-])c1ccccc1)CCCCCCC(=O)/C=C(\[O-])c1ccccc1.[Y+3].[Y+3] | GI50 | > 50 µM
CCOC(=O)C#Cc1c(C(=O)OCC)nnn1[C@@H]1O[C@H](COC)[C@@H](OC)[C@H]1OC | GI50 | 18.2 µM

As a next step, examine the compound that follows.
Qu. Any idea what GI50 was measured for Cc1cccc(Oc2ccc(Nc3ncnc4ccc(NC(=O)CN(C)C)cc34)cc2Cl)c1 ?
Ans. 1.8 µM
